Data origin: patent US12661410B2

ASSAY_SYSTEM: RET(KD: 658-1114 G810R) (Homo sapiens, UniProt P07949, G810R)
Construct: 658-1114; expressed in transfected cells; host or cells: 293T.165 (293T cells, generated in-house)
EXPERIMENTAL_PROTOCOL: HiBiT-Degradation, RET G810R degradation assay (Nano-Glo HiBiT Lytic), 293T.165 cells
Assay type: cell-based
MEASUREMENT_SETUP: 6.0 hours, % remaining protein, read-out: 293T.165 RET(KD: 658-1114 G810R) 6.0 hours (Emax)
READOUT_NAME: Emax

For this compound ( Cn1nc(N2CCC(=O)NC2=O)c2ccc(C3CCN(CC(=O)N4CCN(c5ccc(-c6cc(-c7ccc(N8CCN(Cc9ccccn9)CC8)nc7)c7c(C#N)cnn7c6)cc5)CC4)CC3)cc21 ), measured Emax is < 50%

Sure, the documented Emax for N#Cc1cnn2cc(-c3ccc(N4CCN(C(=O)CC5(O)CCN(c6ccc(NC7CCC(=O)NC7=O)cc6F)CC5)CC4)cc3)cc(-c3ccc(N4CCN(C(=O)Cc5ccc(F)cn5)CC4)nc3)c12 (stereo not shown) is < 50%

So for CC(C)NC(=O)C1(C)CCN(c2ccc(-c3cc(-c4ccc(N5CCN(C(=O)CN6CCC(c7ccc(NC8CCC(=O)NC8=O)cc7F)CC6)CC5)cc4)cn4ncc(C#N)c34)cc2)CC1 (stereo not shown) , the logged Emax turned out to be < 30%

The measured Emax associated with CC(C)CC(=O)N1CCN(c2ccc(-c3nc(-c4cnn(C5CCN(C(=O)CC6CCN(c7ccc(NC8CCC(=O)NC8=O)cc7F)CC6)CC5)c4)cn4ncc(C#N)c34)cn2)CC1 (stereo not shown) reads < 50%

Value of Emax reported for the compound N#Cc1cnn2cc(-c3ccc(N4CCN(C(=O)CN5CCC(c6ccc(NC7CCC(=O)NC7=O)cc6)CC5)CC4)cc3)cc(-c3ccc(N4CCC(Nc5ccccc5)CC4)nc3)c12 (stereo not shown) is < 30%

Emax recorded for this compound, CCC1(C(=O)Nc2ccc(F)cc2)CCN(c2ccc(-c3nc(-c4cnn(C5CCN(C(=O)CC6(O)CCN(c7ccc(NC8CCC(=O)NC8=O)cc7Cl)CC6)CC5)c4)cn4ncc(C#N)c34)cn2)CC1 (stereo not shown) , is < 30%

GET /value?item= N#Cc1cnn2cc(-c3cnn([C@H]4CC[C@H](CCN5CCC(c6ccc(NC7CCC(=O)NC7=O)cc6F)CC5)CC4)c3)nc(-c3ccc(N4CCN(C(=O)Cc5ccc(F)cn5)CC4)nc3)c12 (stereo partly shown) &field=Emax returns < 30%

The reported value for N#Cc1cnn2cc(-c3cnn(C4CCN(C(=O)CN5CCC(c6ccc(NC7CCC(=O)NC7=O)cc6F)CC5)CC4)c3)cc(-c3ccc(N4CCC(Nc5ccccc5)CC4)nc3)c12 (stereo not shown) in terms of Emax is < 50%

Notebook: N#Cc1cnn2cc(-c3cnn([C@H]4CC[C@H](N5CCN(c6ccc(N[C@H]7CCC(=O)NC7=O)cc6F)CC5)CC4)c3)nc(-c3ccc(N4CC5COCC(C4)N5Cc4ccccn4)nc3)c12 (single isomer, unassigned) , Emax read as < 30%

Entry under test: N#Cc1cnn2cc(-c3cnn(C4CC5(C4)CN(C(=O)CN4CCC(c6ccc(NC7CCC(=O)NC7=O)cc6F)CC4)C5)c3)cc(-c3ccc(N4CCN(Cc5ccccn5)CC4)nc3)c12 (stereo not shown) . Its Emax was < 30%

----------
ASSAY_SYSTEM: RET (658-1114) (Homo sapiens, UniProt P07949)
Construct: 658-1114; expressed in transfected cells; host or cells: 293T.144 (293T cells, generated in-house)
Sequence (P07949 658-1114): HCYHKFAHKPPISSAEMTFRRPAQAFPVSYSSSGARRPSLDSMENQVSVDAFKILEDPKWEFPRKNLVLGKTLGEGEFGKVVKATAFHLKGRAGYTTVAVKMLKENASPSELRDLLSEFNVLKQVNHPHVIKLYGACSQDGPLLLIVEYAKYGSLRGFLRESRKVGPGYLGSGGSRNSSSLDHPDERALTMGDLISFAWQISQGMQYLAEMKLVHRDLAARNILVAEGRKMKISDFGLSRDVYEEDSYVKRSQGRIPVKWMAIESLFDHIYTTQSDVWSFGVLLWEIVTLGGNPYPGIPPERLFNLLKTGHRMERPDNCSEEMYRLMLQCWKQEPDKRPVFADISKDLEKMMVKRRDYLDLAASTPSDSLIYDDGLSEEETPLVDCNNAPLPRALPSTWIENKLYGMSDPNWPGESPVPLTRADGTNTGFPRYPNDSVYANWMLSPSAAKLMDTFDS
EXPERIMENTAL_PROTOCOL: HiBiT-Degradation, RET wild-type degradation assay (Nano-Glo HiBiT Lytic), 293T.144 cells
Format: cell-based
MEASUREMENT_SETUP: HiBiT-Degradation
READOUT_NAME: 293T.144 RET (658-1114) 6.0 hours (IP) [nM]

{"columns": ["COMPOUND", "MEASURED"],
 "data": [
  ["CCC1(C(=O)NC(C)C)CCN(c2ccc(-c3nc(-c4cnn(C5CCN(C(=O)CN6CCC(c7ccc(NC8CCC(=O)NC8=O)cc7F)CC6)CC5)c4)cn4ncc(C#N)c34)cn2)CC1 (stereo not drawn)", "++++ (< 50 nM = ++++)"],
  ["N#Cc1cnn2cc(-c3cnn(C4CCN(CCN5CCC(c6ccc(NC7CCC(=O)NC7=O)cc6F)CC5)CC4)c3)cc(-c3ccc(N4CCN(Cc5ccccn5)CC4)nc3)c12 (stereo not drawn)", "++++ (< 50 nM = ++++)"],
  ["CCC1(C(=O)NC(C)C)CCN(c2ccc(-c3cc(-c4cnn(C5CCN(C(=O)CN6CCC(c7ccc(NC8CCC(=O)NC8=O)cc7F)CC6)CC5)c4)cn4ncc(C#N)c34)cc2)CC1 (stereo not drawn)", "++++ (< 50 nM = ++++)"]
]}

----------
For each entry below, report its Emax value.
ASSAY_SYSTEM: RET(KD: 658-1114 G810R) (Homo sapiens, UniProt P07949, G810R)
Construct: 658-1114; expressed in transfected cells; host or cells: 293T.165 (293T cells, generated in-house)
Sequence (P07949 658-1114 G810R): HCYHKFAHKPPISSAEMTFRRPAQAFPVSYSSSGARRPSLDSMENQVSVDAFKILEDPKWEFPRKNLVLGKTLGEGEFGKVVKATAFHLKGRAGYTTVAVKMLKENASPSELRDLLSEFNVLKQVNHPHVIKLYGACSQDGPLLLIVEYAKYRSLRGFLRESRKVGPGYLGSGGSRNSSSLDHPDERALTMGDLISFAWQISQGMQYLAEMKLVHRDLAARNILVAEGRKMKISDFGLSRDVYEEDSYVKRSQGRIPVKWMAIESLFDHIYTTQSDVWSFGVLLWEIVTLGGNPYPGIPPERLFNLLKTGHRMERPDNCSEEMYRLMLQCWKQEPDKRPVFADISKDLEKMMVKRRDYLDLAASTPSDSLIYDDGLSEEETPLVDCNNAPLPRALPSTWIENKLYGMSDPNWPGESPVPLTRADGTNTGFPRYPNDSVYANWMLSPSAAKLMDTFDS
EXPERIMENTAL_PROTOCOL: HiBiT-Degradation, RET G810R degradation assay (Nano-Glo HiBiT Lytic), 293T.165 cells
Assay type: cell-based
MEASUREMENT_SETUP: 6.0 hours, % remaining protein, read-out: 293T.165 RET(KD: 658-1114 G810R) 6.0 hours (Emax)

Record summary for CCC1(C(=O)NC(C)C)CCN(c2ccc(-c3nc(-c4cnn(C5CCN(C(=O)CC6(O)CCN(c7ccc(N[C@H]8CCC(=O)NC8=O)cc7F)CC6)CC5)c4)cn4ncc(C#N)c34)cn2)CC1 (single isomer, unassigned) : reported Emax = < 50%

compound N#Cc1cnn2cc(-c3cnn([C@H]4CC[C@H](N5CCN(c6c(F)cc(NC7CCC(=O)NC7=O)cc6F)CC5)CC4)c3)nc(-c3ccc(N4CC5CC(C4)N5CC4CCC(F)(F)CC4)nc3)c12 (stereo partly drawn) , Emax observed: < 30%

Quick note, Emax for N#Cc1cnn2cc(-c3cnn([C@H]4CC[C@@H](N5CCN(c6ccc(NC7CCC(=O)NC7=O)cc6F)CC5)CC4)c3)nc(-c3ccc(N4C[C@H]5COC[C@@H](C4)N5Cc4ccc(F)cn4)nc3)c12 (single isomer, unassigned) landed at < 30%

Note to self: Emax recorded for CCC1(C(=O)NC(C)C)CCN(c2ccc(-c3nc(-c4cnn(C5CCN(CC6(O)CCN(c7ccc(NC8CCC(=O)NC8=O)cc7F)CC6)CC5)c4)cn4ncc(C#N)c34)cn2)CC1 (stereo not drawn) was < 30%

Reported Emax for CCC1(C(=O)NC(C)C)CCN(c2ccc(-c3nc(-c4cnn([C@H]5CC[C@H](N6CCC(c7ccc(N[C@H]8CCC(=O)NC8=O)cc7F)CC6)CC5)c4)cn4ncc(C#N)c34)cn2)CC1 (single isomer, unassigned) was < 30%

Item: N#Cc1cnn2cc(-c3ccc(C4CCN(C(=O)CC5(O)CCN(c6ccc(NC7CCC(=O)NC7=O)cc6F)CC5)CC4)cc3)nc(-c3ccc(N4CCN(C(=O)c5ccon5)CC4)nc3)c12 (stereo not drawn) | Emax: < 50%

CCC1(c2ccccn2)CCN(c2ccc(-c3nc(-c4cnn(C5CCN(C(=O)CN6CCC(c7ccc(NC8CCC(=O)NC8=O)cc7F)CC6)CC5)c4)cn4ncc(C#N)c34)cn2)CC1 (stereo not drawn) has a reported Emax of < 30%

Notebook: CCC1(C(=O)Nc2ccccc2)CCN(c2ccc(-c3nc(-c4cnn(C5CCN(C(=O)CC6(O)CCN(c7ccc(NC8CCC(=O)NC8=O)cc7Cl)CC6)CC5)c4)cn4ncc(C#N)c34)cn2)CC1 (stereo not drawn) , Emax read as < 30%

// sample N#Cc1cnn2cc(-c3cnn(C4CCN(C(=O)CC5(O)CCN(c6ccc(NC7CCC(=O)NC7=O)cc6F)CC5)CC4)c3)nc(-c3ccc(N4CCN(C(=O)c5ccon5)CC4)nc3)c12 (stereo not drawn) , its Emax was < 30%

Just so you know, measured Emax for CCC1(C(=O)NC(C)C)CCN(c2ccc(-c3nc(-c4cnn(C5CCN(C(=O)CC6(O)CCN(c7ccc(N[C@@H]8CCC(=O)NC8=O)cc7Cl)CC6)CC5)c4)cn4ncc(C#N)c34)cn2)CC1 (single isomer, unassigned) came out at < 30%

Summary for this compound, CO[C@@H](C(=O)N1CCN(c2ccc(-c3nc(-c4cnn([C@H]5CC[C@@H](N6CCN(c7c(F)cc(NC8CCC(=O)NC8=O)cc7F)CC6)CC5)c4)cn4ncc(C#N)c34)cn2)CC1)c1ccccc1 (single isomer, unassigned) : Emax is < 30%

In plain terms, CCC1(C(=O)NC(C)C)CCN(c2ccc(-c3nc(-c4cnn(C5CCN(C(=O)CN6CCC(c7ccc(NC8CCC(=O)NC8=O)cc7F)CC6)CC5)c4)cn4ncc(C#N)c34)cn2)CC1 (stereo not drawn) has a documented Emax of < 50%

Emax measured on N#Cc1cnn2cc(-c3ccc(N4CCN(C(=O)CN5CCC(c6ccc(NC7CCC(=O)NC7=O)cc6F)CC5)CC4)cc3)cc(-c3ccc(N4CCN(C(=O)Cc5ccc(F)cn5)CC4)nc3)c12 (stereo not drawn) = < 30%

Emax reported for this compound CC(C)NC(=O)C1(C)CCN(c2ccc(-c3cc(-c4cnn([C@H]5CC[C@H](CCN6CCC(c7ccc(NC8CCC(=O)NC8=O)cc7F)CC6)CC5)c4)cn4ncc(C#N)c34)cn2)CC1 (stereo partly drawn) : < 30%

Recorded result, COc1ccnc(CN2C3CC2CN(c2ccc(-c4cc(-c5cnn(C6CCN(C(=O)CN7CCC(c8ccc(NC9CCC(=O)NC9=O)cc8F)CC7)CC6)c5)cn5ncc(C#N)c45)cn2)C3)c1 (stereo not drawn) , Emax: < 30%

Record N#Cc1cnn2cc(-c3cnn(C4CCN(C(=O)CN5CCC(c6ccc(OC7CCC(=O)NC7=O)cc6F)CC5)CC4)c3)nc(-c3ccc(N4CCN(Cc5cc(F)ccn5)CC4)cc3)c12 (stereo not drawn) . Reported Emax: < 50%

According to the records, this compound CCC1(C(=O)NC(C)C)CCN(c2ccc(-c3cc(-c4cnn([C@H]5CC[C@H](N6CCC(c7ccc(N[C@@H]8CCC(=O)NC8=O)cc7F)CC6)CC5)c4)cn4ncc(C#N)c34)cn2)CC1 (single isomer, unassigned) displays Emax of < 30%

Consider CCC1(C(=O)NC(C)C)CCN(c2ccc(-c3cc(-c4ccc(N5CCC(O)(CCN6CCC(c7ccc(NC8CCC(=O)NC8=O)cc7F)CC6)CC5)cc4)cn4ncc(C#N)c34)cn2)CC1 (stereo not drawn) . Its measured Emax is < 30%
